All figures here come from ChEMBL document CHEMBL3988442.

target: Shiga toxin 2 (Escherichia coli O157:H7) (UniProt P09385+P09386); test: E. coli 0.157:H7 Shiga Toxin SOP - stx2 screening assay; assay type: functional; set-up: scale not given: direction of the effect not stated beside the values; conditions: 30 µM
Reported Percent Effect values for the following molecules.

molecule	result
COCCN1C[C@H]2[C@@H](C1)N(C(=O)c1cccs1)CC[C@H]2OC	3.28%
Clc1snnc1CN1CCCCC1Cn1cncn1 (centres undefined)	-12%
Cc1csc(N2CCN(C(=O)CCC(=O)c3ccc(C)s3)CC2)n1	8.56%
Cn1cc(-c2nc(CN3CCc4c(ncn4C4CC4)C3)cs2)cn1	-83.4%

Exam item: Identify the measured Percent Effect of Cc1cc(CN2CCN(CC(O)C(C)(C)C)CC2)no1 (centres undefined) for Shiga toxin 2 (Escherichia coli O157:H7) (UniProt P09385+P09386).
Marked response: 0.649%

Exam item: So what Percent Effect did CN1CCCC(c2n[nH]c3ncccc23)C1 (centres undefined) get with Shiga toxin 2 (Escherichia coli O157:H7) (UniProt P09385+P09386)?
Marked response: 1.35%

Exam item: Lab note: need Percent Effect with Shiga toxin 2 (Escherichia coli O157:H7) (UniProt P09385+P09386) for entry O=C(c1cnco1)N1CCCC(Cc2cccc3ncccc23)C1 (centres undefined) , please look it up.
Marked response: -27.4%

Exam item: Short answer please: Percent Effect, Shiga toxin 2 (Escherichia coli O157:H7) (UniProt P09385+P09386), entry CCc1nc(CN2CCCC(NCc3ccc(C(N)=O)cc3)C2)no1 (centres undefined)
Marked response: -8.49%

Exam item: State its Percent Effect on Shiga toxin 2 (Escherichia coli O157:H7) (UniProt P09385+P09386): COCCNC(=O)C1(c2ccccc2C)CCOCC1
Marked response: 19.2%

Exam item: Find the measured Percent Effect: item CCOC1COC2(CCN(Cc3cccc(F)c3)CC2)C1 (centres undefined) , target or system Shiga toxin 2 (Escherichia coli O157:H7) (UniProt P09385+P09386).
Marked response: -3.58%

Exam item: Please tell me: Percent Effect of CN1CCC/C1=N\S(=O)(=O)c1ccc(NC(=O)CCc2cccs2)cc1 , system Shiga toxin 2 (Escherichia coli O157:H7) (UniProt P09385+P09386)?
Marked response: -144%

Exam item: For the record COc1ccc(C(=O)N2CC[C@H](CO)[C@H](O)C2)c(C)c1 , what value of Percent Effect is listed for Shiga toxin 2 (Escherichia coli O157:H7) (UniProt P09385+P09386)?
Marked response: 9.86%

Exam item: Enter reported Percent Effect observed with Shiga toxin 2 (Escherichia coli O157:H7) (UniProt P09385+P09386) for Cc1nccc(-c2cccc(NCC(=O)N3CCCCCCC3)c2)n1
Marked response: 18.8%
